CONDITION: 313.15 K; 101.33 kPa; Liquid; Vibrating tube method
Form field: mass density (one value per entry).
ENDPOINT NAME: mass density (kg/m3)

>  <SMILES TEXT>
Cc1ccc(C)cc1

>  <NUMERIC VALUE>
843.59

$$$$
>  <SMILES TEXT>
Cc1ccccc1C

>  <NUMERIC VALUE>
862.78

$$$$
>  <SMILES TEXT>
Cc1cccc(C)c1

>  <NUMERIC VALUE>
846.85

$$$$
>  <SMILES TEXT>
Cc1ccccc1

>  <NUMERIC VALUE>
848.2

$$$$
>  <SMILES TEXT>
CCc1ccccc1

>  <NUMERIC VALUE>
849.33

$$$$
>  <SMILES TEXT>
O=[N+]([O-])c1ccccc1

>  <NUMERIC VALUE>
1183.3

$$$$
>  <SMILES TEXT>
CCCCN(CCCC)CCCC

>  <NUMERIC VALUE>
761.97

$$$$
